Origin of the recorded values: ChEMBL document CHEMBL1149237

Target: UniProt:P19793
Test: Antagonistic efficacy in CV-1 cells (LGD1069 was used as reference)
Format: functional, cell-based
Conditions: Cercopithecidae
Think of 7% as a floor: if Efficacy stands on it or above, it is fulfilled; beneath it, not fulfilled.

INSERT INTO assay_data (substance_smiles, label_class) VALUES
  ('CCCCOc1c(-c2c[nH]c3ccc(/C(C)=C/C(=O)O)cc23)cc(C(C)(C)C)cc1C(C)(C)C', 'fulfilled'),
  ('COc1c(-c2csc3ccc(/C(C)=C/C(=O)O)cc23)cc(C(C)C)cc1C(C)C', 'not fulfilled'),
  ('CCCOc1c(-c2c[nH]c3ccc(/C(C)=C/C(=O)O)cc23)cc(C(C)(C)C)cc1C(C)(C)C', 'fulfilled'),
  ('C/C(=C\C(=O)O)c1ccc2scc(-c3cc(C(C)C)cc(C(C)C)c3O)c2c1', 'not fulfilled'),
  ('CCOc1c(-c2csc3cnc(/C(C)=C/C(=O)O)cc23)cc(C(C)C)cc1C(C)C', 'fulfilled'),
  ('C/C(=C\C(=O)O)c1ccc2[nH]cc(-c3cc(C(C)(C)C)cc(C(C)(C)C)c3OCC(F)F)c2c1', 'fulfilled'),
  ('CCCCOc1c(-c2cn(C)c3ccc(/C(C)=C/C(=O)O)cc23)cc(C(C)C)cc1C(C)C', 'fulfilled');

====

This section presents molecules with their documented Efficacy values.
Biological target: Retinoic acid receptor RXR-alpha (Homo sapiens) (UniProt P19793)
Sequence (P19793 whole entry): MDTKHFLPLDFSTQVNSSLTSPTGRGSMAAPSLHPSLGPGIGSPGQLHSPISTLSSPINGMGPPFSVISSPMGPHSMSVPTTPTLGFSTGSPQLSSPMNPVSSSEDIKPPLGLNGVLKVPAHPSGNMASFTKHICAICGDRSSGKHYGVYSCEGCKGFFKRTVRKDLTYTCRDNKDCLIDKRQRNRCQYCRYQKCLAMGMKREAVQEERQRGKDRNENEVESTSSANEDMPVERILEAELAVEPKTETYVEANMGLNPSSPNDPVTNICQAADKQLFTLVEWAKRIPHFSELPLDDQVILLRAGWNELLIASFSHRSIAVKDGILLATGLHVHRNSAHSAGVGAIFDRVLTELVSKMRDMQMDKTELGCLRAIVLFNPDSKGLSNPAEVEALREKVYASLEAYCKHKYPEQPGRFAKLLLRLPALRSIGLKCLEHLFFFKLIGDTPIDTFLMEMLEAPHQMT
Test: Agonistic efficacy in CV-1 cells (LGD1069 was used as reference)
Type: functional, cell-based
Details: Cercopithecidae
Readout type: Efficacy (%)

INSERT INTO assay_data (substance_smiles, test_system, quantitative_result) VALUES
  ('CCCOc1c(-c2c[nH]c3ccc(/C(C)=C/C(=O)O)cc23)cc(C(C)(C)C)cc1C(C)(C)C', 'Retinoic acid receptor RXR-alpha (Homo sapiens) (UniProt P19793)', 7),
  ('CCOc1c(-c2[nH]nc3ccc(/C(C)=C/C(=O)O)cc23)cc(C(C)C)cc1C(C)C', 'Retinoic acid receptor RXR-alpha (Homo sapiens) (UniProt P19793)', 43),
  ('C/C(=C\C(=O)O)c1ccc2scc(-c3cc(C(C)C)cc(C(C)C)c3OCCCF)c2c1', 'Retinoic acid receptor RXR-alpha (Homo sapiens) (UniProt P19793)', 1.78),
  ('C/C(=C\C(=O)O)c1ccc2[nH]cc(-c3cc(C(C)(C)C)cc(C(C)(C)C)c3OCC(F)F)c2c1', 'Retinoic acid receptor RXR-alpha (Homo sapiens) (UniProt P19793)', 15),
  ('C/C(=C\C(=O)O)c1ccc2scc(-c3cc(C(C)C)cc(C(C)C)c3O)c2c1', 'Retinoic acid receptor RXR-alpha (Homo sapiens) (UniProt P19793)', 37.4),
  ('C/C(=C/C=C/C(C)=C/C(=O)O)c1cc(C(C)(C)C)cc(C(C)(C)C)c1OCCCF', 'Retinoic acid receptor RXR-alpha (Homo sapiens) (UniProt P19793)', 4),
  ('CCCCOc1c(\C(C)=C/C=C/C(C)=C/C(=O)O)cc(C(C)C)cc1C(C)C', 'Retinoic acid receptor RXR-alpha (Homo sapiens) (UniProt P19793)', 2);

====

Molecular target: UniProt:P19793
Experiment: Effective concentration required for agonistic activity in CV-1 cells expressing RXR-alpha
Type: functional, cell-based, Cercopithecidae
pEC50: −log10 of the molar value.
compounds and their reported pEC50
Readout type: pEC50

INSERT INTO results (substance_smiles, quantitative_result) VALUES
  ('CCOc1c(-c2noc3ccc(/C(C)=C/C(=O)O)cc23)cc(C(C)C)cc1C(C)C', 5.99),
  ('CCOc1c(-c2csc3cnc(/C(C)=C/C(=O)O)cc23)cc(C(C)C)cc1C(C)C', 5.84),
  ('CCOc1c(-c2n[nH]c3ccc(/C(C)=C/C(=O)O)cc23)cc(C(C)C)cc1C(C)C', 6.63),
  ('C/C(=C\C(=O)O)c1ccc2scc(-c3cc(C(C)C)cc(C(C)C)c3O)c2c1', 5.84),
  ('C/C(=C\C(=O)O)c1ccc2[nH]cc(-c3cc(C(C)(C)C)cc(C(C)(C)C)c3OCC(F)F)c2c1', 7.19),
  ('COc1c(-c2csc3ccc(/C(C)=C/C(=O)O)cc23)cc(C(C)C)cc1C(C)C', 6.04);

====

Biological target: Retinoic acid receptor RXR-alpha (Homo sapiens) (UniProt P19793)
Assay: Antagonistic efficacy in CV-1 cells (LGD1069 was used as reference)
Format: functional, cell-based
Conditions: Cercopithecidae
Lab note: anything with Efficacy at or over 80% counts as class 1; the rest go in class 0.

INSERT INTO results (substance_smiles, label_class) VALUES
  ('C/C(=C/C=C/C(C)=C/C(=O)O)c1cc(C(C)(C)C)cc(C(C)(C)C)c1OCCCF', 'class 1'),
  ('CCCCOc1c(\C(C)=C/C=C/C(C)=C/C(=O)O)cc(C(C)C)cc1C(C)C', 'class 1'),
  ('CCOc1c(-c2noc3ccc(/C(C)=C/C(=O)O)cc23)cc(C(C)C)cc1C(C)C', 'class 0'),
  ('C/C(=C\C(=O)O)c1ccc2scc(-c3cc(C(C)C)cc(C(C)C)c3OCCCF)c2c1', 'class 0'),
  ('CCCCOc1c(-c2c[nH]c3ccc(/C(C)=C/C(=O)O)cc23)cc(C(C)C)cc1C(C)C', 'class 1'),
  ('CCOc1c(-c2cnc3ccc(/C(C)=C/C(=O)O)cn23)cc(C(C)C)cc1C(C)C', 'class 0'),
  ('CCCCOc1c(-c2cccc3[nH]c(/C(C)=C/C(=O)O)cc23)cc(C(C)C)cc1C(C)C', 'class 0');

====

Listed here: items and their measured Ki.
Target: Retinoic acid receptor gamma (Homo sapiens)
Sequence (P13631 whole entry): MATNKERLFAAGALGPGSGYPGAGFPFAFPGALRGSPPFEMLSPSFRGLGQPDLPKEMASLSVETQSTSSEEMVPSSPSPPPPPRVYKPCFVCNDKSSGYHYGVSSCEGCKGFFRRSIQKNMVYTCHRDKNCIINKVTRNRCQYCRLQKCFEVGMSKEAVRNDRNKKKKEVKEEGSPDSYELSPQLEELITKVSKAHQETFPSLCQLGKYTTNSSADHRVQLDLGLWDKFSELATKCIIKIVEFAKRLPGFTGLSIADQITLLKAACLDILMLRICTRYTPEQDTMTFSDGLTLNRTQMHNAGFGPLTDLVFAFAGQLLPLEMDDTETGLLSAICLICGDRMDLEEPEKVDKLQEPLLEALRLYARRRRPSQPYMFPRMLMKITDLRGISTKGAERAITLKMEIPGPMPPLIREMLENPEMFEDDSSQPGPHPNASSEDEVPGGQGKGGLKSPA
Assay: Ability to displace [3H]ATRA from Retinoic acid receptor gamma in CV-1 cells
Readout type: Ki

INSERT INTO results (substance_smiles, readout_type, result) VALUES
  ('CCCCOc1c(-c2c[nH]c3ccc(/C(C)=C/C(=O)O)cc23)cc(C(C)(C)C)cc1C(C)(C)C', 'Ki', '> 10 µM'),
  ('CCCCOc1c(-c2c[nH]c3ccc(/C(C)=C/C(=O)O)cc23)cc(C(C)C)cc1C(C)C', 'Ki', '> 10 µM'),
  ('CCOc1c(\C(C)=C/C=C/C(C)=C/C(=O)O)cc(C(C)C)cc1C(C)C', 'Ki', '> 10 µM'),
  ('C/C(=C/C=C/C(C)=C/C(=O)O)c1cc(C(C)(C)C)cc(C(C)(C)C)c1OCCCF', 'Ki', '> 10 µM'),
  ('C/C(=C\C(=O)O)c1ccc2scc(-c3cc(C(C)C)cc(C(C)C)c3O)c2c1', 'Ki', '> 10 µM'),
  ('CCOc1c(-c2noc3ccc(/C(C)=C/C(=O)O)cc23)cc(C(C)C)cc1C(C)C', 'Ki', '> 10 µM'),
  ('COc1c(-c2csc3ccc(/C(C)=C/C(=O)O)cc23)cc(C(C)C)cc1C(C)C', 'Ki', '> 10 µM'),
  ('CCCOc1c(-c2c[nH]c3ccc(/C(C)=C/C(=O)O)cc23)cc(C(C)(C)C)cc1C(C)(C)C', 'Ki', '> 10 µM'),
  ('CCOc1c(-c2cnc3ccc(/C(C)=C/C(=O)O)cn23)cc(C(C)C)cc1C(C)C', 'Ki', '> 10 µM'),
  ('C/C(=C\C(=O)O)c1ccc2[nH]cc(-c3cc(C(C)(C)C)cc(C(C)(C)C)c3OCC(F)F)c2c1', 'Ki', '> 10 µM'),
  ('CCOc1c(-c2n[nH]c3ccc(/C(C)=C/C(=O)O)cc23)cc(C(C)C)cc1C(C)C', 'Ki', '> 10 µM'),
  ('CCCCOc1c(\C(C)=C/C=C/C(C)=C/C(=O)O)cc(C(C)C)cc1C(C)C', 'Ki', '> 10 µM'),
  ('CCCCOc1c(-c2cn(C)c3ccc(/C(C)=C/C(=O)O)cc23)cc(C(C)C)cc1C(C)C', 'Ki', '> 10 µM'),
  ('C/C(=C\C(=O)O)c1ccc2scc(-c3cc(C(C)C)cc(C(C)C)c3OCCCF)c2c1', 'Ki', '> 10 µM');
